# Study system: GST-BCL-2δC21 fusion protein [GST: P08515]
# Assay info: fluorescence polarization, unlabelled peptide displacing 25 nM fluoresceinated BIDBH3 from 1 µM GST-BCL-2; SD +/- 1648
Ends that are not written are not given here.
Quantity: pIC50
Value format note: pIC50 is -log10 of concentration (mol/L); just state the number.

# input binder: MEGSDALALRLACIGDEMDV (not fully specified) [BIKBH3] ; wanted: its pIC50
5.31
